Values were extracted from patent US20230265151A1.

- TEST TARGET: human glucagon-like peptide-1 (GLP-1) receptor (human, UniProt P43220 24-463)
- TEST DETAILS: cell-based or functional assay
Here, each record is paired with measured cAMP EC50 data.
Give the value, in units of nM, as a plain number.

Below: 2 binders and their reported cAMP EC50.
YXEGTXTSDVSIXLDXKAQXEFIKXLIEGGPSSGAPPPS (Aib2, αMeF6, αMeL13, Orn16, K17(Z), Aib20, K24(Z), αMeY25, C-terminal NH2; Z = AEEA2-(γ-Glu)-CO-(CH2)12-CO2H) [Example 181] : 0.182
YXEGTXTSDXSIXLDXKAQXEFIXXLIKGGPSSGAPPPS (Aib2, αMeF(2F)6, OMeY10, αMeL13, Orn16, K17(Z), Aib20, D-Glu24, αMeY25, K28(Z), C-terminal NH2; Z = AEEA2-(γ-Glu)-(10-(4-carboxyphenoxy)decanoyl)) [Example 278] : 0.29

Now for the binder whose cAMP EC50 we want.
Exercise: Report cAMP EC50 for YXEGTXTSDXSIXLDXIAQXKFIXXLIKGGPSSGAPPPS (Aib2, αMeF(2F)6, 4Pal10, αMeL13, Orn16, Aib20, K21(Z), D-Glu24, αMeY25, K28(Z), C-terminal NH2; Z = AEEA2-(γ-Glu)-(4-(4-tert-butylphenyl)butanoyl)) [Example 204] please.
Key: 0.47
